- test_target: RAC-alpha serine/threonine-protein kinase (Homo sapiens) (UniProt P31749)
- method_summary: HTS Assay for Inhibitors of Akt Phophorylation: Primary Screen; as to activity change: % is scaled to controls: 0 for no effect and ±100 for the full control effect
- condition_info: Neuro2A IGF-stimulated pAkt S473 HTRF, 20 min; at 50 µM, stronger effect = lower value
Out of some 360,000 compounds screened, about 1,100 (0.31%) were called active. Shown is part of a subset that was picked to be rich in actives.

[
  {
    "compound": "CCn1cc(C(=O)NCC2CCCO2)c(=O)c2cc(S(=O)(=O)N3CCCCC3)ccc21 (stereo not given)",
    "activity change": "-109% (active)"
  },
  {
    "compound": "CCn1cc(C(=O)N2CC(C)CC(C)C2)c(=O)c2cc(S(=O)(=O)N3CCCC3)ccc21 (stereo not given)",
    "activity change": "inactive"
  },
  {
    "compound": "Cc1ccc(C(=O)NC2CCN(C(=O)Nc3ccc(F)cc3)CC2)cc1",
    "activity change": "inactive"
  },
  {
    "compound": "Cc1cccc(C)c1NC(=O)C(c1cccc2ccccc12)n1c(=O)c(-c2ccco2)nc2ccccc21 (stereo not given)",
    "activity change": "inactive"
  },
  {
    "compound": "CCc1nc2sc3c(Cl)ncnc3c2c2c1CCCC2",
    "activity change": "inactive"
  }
]

---

- test_target: RAC-alpha serine/threonine-protein kinase (Homo sapiens) (UniProt P31749)
- method_summary: HTS Assay for Inhibitors of Akt Phophorylation: Primary Screen; as to activity change: % is scaled to controls: 0 for no effect and ±100 for the full control effect
- condition_info: Neuro2A IGF-stimulated pAkt S473 HTRF, 20 min; at 50 µM, stronger effect = lower value
The whole screen tested about 360,000 compounds, of which about 1,100 (0.31%) were called active. Only a selection was taken, and actives are over-represented in it overall.

[
  {
    "compound": "Cc1cccc(OCc2nnc(SCn3nnc4ccccc4c3=O)o2)c1",
    "activity change": "-101% (active)"
  },
  {
    "compound": "Cc1ccccc1Nc1nnc(C)c(=O)[nH]1",
    "activity change": "-109% (active)"
  },
  {
    "compound": "COCCNC(=O)Cn1cc(C(=O)c2cccs2)c2ccccc21",
    "activity change": "-3.12% (inactive)"
  },
  {
    "compound": "O=C(O)CCN1C(=O)CC2(CCCCC2)C1=O",
    "activity change": "-117% (active)"
  },
  {
    "compound": "CC(=O)C[C@@H]1OC[C@H](CO)N1S(=O)(=O)c1ccc(C)cc1",
    "activity change": "inactive"
  },
  {
    "compound": "Cc1ccc(S(=O)(=O)N2[C@@H](Cc3ccccc3)CO[C@H]2CC(=O)OCc2ccccc2)cc1",
    "activity change": "inactive"
  },
  {
    "compound": "Cc1ccc(S(=O)(=O)N2C[C@H]3n4c(=O)ccc(=O)n4C[C@H](OC(=O)NC4CCCC4)[C@@]3(O)C2)cc1",
    "activity change": "inactive"
  },
  {
    "compound": "COc1cc(OC)cc(/C(N)=N/O)c1",
    "activity change": "inactive"
  },
  {
    "compound": "COc1cccc(-n2cc3c(c2-c2ccccc2)c(=O)n(C)c(=O)n3C)c1",
    "activity change": "-16.8% (inactive)"
  },
  {
    "compound": "Nc1ccc(N=Nc2ccccc2Cl)c(N)n1",
    "activity change": "inactive"
  },
  {
    "compound": "CCOC(=O)c1c(NC(=O)CCCN2CCOCC2)sc2c1CC(C)(C)OC2",
    "activity change": "inactive"
  },
  {
    "compound": "COc1ccc(OCC(=O)NCCc2ccc(S(N)(=O)=O)cc2)cc1",
    "activity change": "-119% (active)"
  },
  {
    "compound": "O=C1CC2(CCCC2)C(=O)N1CN1CCN(S(=O)(=O)c2ccc(F)cc2F)CC1",
    "activity change": "inactive"
  },
  {
    "compound": "COc1ccc(C(C(=O)Nc2c(C)cccc2C)N2CCN(c3ccc(C)cc3)CC2)cc1 (stereo not given)",
    "activity change": "inactive"
  },
  {
    "compound": "CC(C)(Oc1ccc(Cl)cc1)C(=O)OCC(=O)NCCc1ccc(S(N)(=O)=O)cc1",
    "activity change": "inactive"
  },
  {
    "compound": "Cc1onc(-c2ccccc2)c1C(=O)N=C(N)c1ccc(Cl)cc1",
    "activity change": "inactive"
  },
  {
    "compound": "COc1ccc2ccccc2c1CNCc1ccccn1",
    "activity change": "inactive"
  },
  {
    "compound": "CC(CN1CCCCC1)OC(=O)c1ccccc1Cl (stereo not given)",
    "activity change": "-96.5% (active)"
  },
  {
    "compound": "CCOC(=O)C1C(C)C(C(C)(C)C)N(S(=O)(=O)c2ccc(C)cc2)C1c1ccccc1 (stereo not given)",
    "activity change": "inactive"
  },
  {
    "compound": "Cc1cc(NC(=O)CSc2nc(C(C)C)nc3sc4c(c23)CCC(C)C4)no1 (stereo not given)",
    "activity change": "-89.6% (active)"
  },
  {
    "compound": "Nc1nnc(SCn2nnc3ccccc3c2=O)s1",
    "activity change": "inactive"
  },
  {
    "compound": "CC(C)N1C(=O)c2ccccc2NC(=O)C1C(=O)NCc1cccs1 (stereo not given)",
    "activity change": "inactive"
  },
  {
    "compound": "COC(=O)c1ccc2nc(-c3ccc(F)cc3)c(Cc3ccc(C)cc3)n2c1",
    "activity change": "inactive"
  },
  {
    "compound": "Cc1ccccc1NC(=O)CSC(=O)c1ccccc1",
    "activity change": "inactive"
  },
  {
    "compound": "COC(=O)C[C@H]1C=C[C@@H](NS(=O)(=O)c2ccc(C)cc2)[C@@H](CO)O1",
    "activity change": "inactive"
  },
  {
    "compound": "Cc1ccccc1NC(=O)c1ccccc1",
    "activity change": "-122% (active)"
  },
  {
    "compound": "C=CCNc1nnc(SCC(=O)N2CCCCC2)c2ccccc12",
    "activity change": "4.07% (inactive)"
  },
  {
    "compound": "COc1ccc(N2c3ccccc3CN(Cc3ccccc3)[C@@H](C)[C@H]2Cc2ccc(-c3ccccc3)cc2)cc1",
    "activity change": "inactive"
  },
  {
    "compound": "Cc1cccc(C(=O)OC(C)CN2CCCC2)c1 (stereo not given)",
    "activity change": "inactive"
  },
  {
    "compound": "CCOC(=O)c1sc(NC(=O)CCN2CCOCC2)c(C(=O)OCC)c1C",
    "activity change": "-80.1% (active)"
  },
  {
    "compound": "CC(C)(C)NC(=O)C(CCc1ccccc1)n1c(=O)c(-c2ccccc2)nc2ccccc21 (stereo not given)",
    "activity change": "inactive"
  },
  {
    "compound": "CCCCCNC(=O)C1C(=O)Nc2ccccc2C(=O)N1C(C)(C)C (stereo not given)",
    "activity change": "inactive"
  },
  {
    "compound": "C=CCNC(=O)CCCC(=O)NCC=C",
    "activity change": "-102% (active)"
  },
  {
    "compound": "CCOC(=O)C=Cc1ccc(C(=O)OCC)[nH]1",
    "activity change": "inactive"
  },
  {
    "compound": "O=C(CN1C(=O)NC2(CCCCCC2)C1=O)NC1CC1",
    "activity change": "inactive"
  },
  {
    "compound": "FC(F)(F)c1cccc(-c2nc3ccccc3n2C(c2ccccc2)c2nc3ccccc3[nH]2)c1 (stereo not given)",
    "activity change": "inactive"
  },
  {
    "compound": "Cc1cn(C)c(=O)n(C)c1=O",
    "activity change": "inactive"
  },
  {
    "compound": "CC(=O)NS(=O)(=O)c1ccc(NC(=O)/C=C/c2ccccc2Cl)cc1",
    "activity change": "inactive"
  },
  {
    "compound": "CCc1ccc2c(c1)cc(CN(C(=S)Nc1ccccc1Cl)C1CC1)c1nnnn12",
    "activity change": "-83.6% (active)"
  },
  {
    "compound": "COc1ccc(CCNC(=O)COc2ccc3c(c2)OCO3)cc1",
    "activity change": "inactive"
  },
  {
    "compound": "CC(C)CC1(C)NC(=O)N(CC(=O)Nc2ccc3c(c2)OCCO3)C1=O (stereo not given)",
    "activity change": "inactive"
  },
  {
    "compound": "CCC(C(=O)Nc1c(C)cccc1C)n1c(-c2cc(C)cs2)nc2ccccc21 (stereo not given)",
    "activity change": "inactive"
  },
  {
    "compound": "O=C(C[C@H]1CC[C@@H](NC(=O)c2ccncc2)[C@@H](CO)O1)NCC1CC1",
    "activity change": "inactive"
  },
  {
    "compound": "Cc1cccc2nc(CNc3ccc(F)cc3)cn12",
    "activity change": "-128% (active)"
  },
  {
    "compound": "NS(=O)(=O)c1ccc(CCNC(=O)NC2CCCCC2)cc1",
    "activity change": "inactive"
  }
]

Data provenance: PubChem BioAssay AID651550
